pEC50: −log10 of the molar value.
Entries with reported pEC50 on UniProt P03372
Sequence (P03372 whole entry): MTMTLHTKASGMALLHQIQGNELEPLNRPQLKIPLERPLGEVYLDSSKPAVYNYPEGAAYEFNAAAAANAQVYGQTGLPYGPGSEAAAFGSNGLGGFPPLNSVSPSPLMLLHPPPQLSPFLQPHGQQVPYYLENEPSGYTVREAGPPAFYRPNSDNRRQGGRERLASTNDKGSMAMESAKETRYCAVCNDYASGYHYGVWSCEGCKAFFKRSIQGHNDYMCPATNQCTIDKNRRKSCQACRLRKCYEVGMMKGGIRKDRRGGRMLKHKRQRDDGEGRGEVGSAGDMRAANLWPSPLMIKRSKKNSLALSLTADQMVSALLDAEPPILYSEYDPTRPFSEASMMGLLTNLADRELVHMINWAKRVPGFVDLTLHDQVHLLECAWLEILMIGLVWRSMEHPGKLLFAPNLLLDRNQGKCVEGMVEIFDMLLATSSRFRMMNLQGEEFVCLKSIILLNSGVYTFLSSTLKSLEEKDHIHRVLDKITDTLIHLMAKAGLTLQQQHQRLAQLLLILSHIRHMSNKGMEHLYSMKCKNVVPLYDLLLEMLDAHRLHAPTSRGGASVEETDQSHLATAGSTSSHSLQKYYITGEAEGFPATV
measuredParameter: pEC50

| structureAsSmiles | reading |
| --- | --- |
| Cc1ccc(C2=C(c3ccc(O)cc3)Cc3cc(O)ccc32)cc1 | 7.77 |
| Oc1ccc(C2=C(c3ccc(Cl)cc3)c3ccc(O)cc3C2)cc1 | 7.77 |

[a] Oc1ccc(C2=C(c3ccc(C(F)(F)F)cc3)c3ccc(O)cc3C2)cc1
[b] Oc1ccc(C2=C(c3ccc(O)cc3)c3ccc(O)cc3C2)cc1
## Task pEC50 comparison. Which is larger, a or b ? Indicate your choice by writing its label.
## Result b
(b: 8.15, a: 7.82)
